biological target: UniProt:P08173; assay: Logarithm of affinity (log 1/M) at the muscarinic acetylcholine receptor M4 by using semiquantitative equilibrium and off-rate assay
Sequence (P08173 whole entry): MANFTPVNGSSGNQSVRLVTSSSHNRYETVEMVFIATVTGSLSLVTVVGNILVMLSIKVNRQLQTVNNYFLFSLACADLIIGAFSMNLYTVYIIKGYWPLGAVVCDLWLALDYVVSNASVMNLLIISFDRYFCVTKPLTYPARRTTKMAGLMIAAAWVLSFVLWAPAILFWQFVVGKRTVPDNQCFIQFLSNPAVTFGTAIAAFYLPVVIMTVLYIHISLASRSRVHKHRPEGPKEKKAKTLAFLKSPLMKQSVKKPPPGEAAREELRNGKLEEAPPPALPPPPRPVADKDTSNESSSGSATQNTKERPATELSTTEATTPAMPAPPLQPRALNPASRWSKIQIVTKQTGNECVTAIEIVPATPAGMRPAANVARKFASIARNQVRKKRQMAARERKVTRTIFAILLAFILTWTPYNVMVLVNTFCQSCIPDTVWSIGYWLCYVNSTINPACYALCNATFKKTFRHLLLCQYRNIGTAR
property label: Log 1/M
API doc: respond with a numeric literal and nothing else, no unit.

Here is how some compounds turned out for Log 1/M.
COc1cccc2c1c1c3c(cc4c1n2C(=O)CC4(C)C)CNCC3 :: 5.94
COC(=O)c1ccc2c(c1)c1c3c(cc4c1n2C(=O)CC4)CCNC3 :: 5.84
O=C1CCc2cc3c(c4c5cc(O)ccc5n1c24)CCNC3 :: 5.65
Cc1ccc2c(c1)c1c3c(cc4c1n2C(=O)CC4)CNCC3 :: 6.26
CC1(C)CC(=O)n2c3ccccc3c3c4c(cc1c32)CCNC4 :: 5.42
O=C1CCc2cc3c(c4c5ccc(Cl)cc5n1c24)CCNC3 :: 5.61

Next:
Item: `O=C1CCc2cc3c(c4c5ccccc5n1c24)CNCC3` Test system: UniProt:P08173 Read-out: Log 1/M Value: ? 5.31
